# Test: Dynamic light scattering of LNPs: Z-average diameter, number average diameter, PDI
# Type: physicochemical
# Experimental parameters: LNP, sg:mRNA 1:1, N/P about 6, 50/9/38/3; Table 2, Experiments 2-20
Property: PDI

> print(dat)
                                   molecule  result
1  CCCCC/C=C\C/C=C\CCCCCCCC(=O)OCC(COCCN(CC)CC)COC(=O)CCC(OCCCCCCCC)OCCCCCCCC (stereo not drawn)    0.02

I. CCCCC/C=C\C/C=C\CCCCCCCC(=O)OCC(C)(COC(=O)CCC(OCCCCCCCC)OCCCCCCCC)COC(=O)OCCCN(CC)CC (stereo not drawn)
II. CCCCCC/C=C\COC(=O)CCCCCCCC(=O)OCC(COC(=O)CCC(OCCCCCCCCC)OCCCCCCCCC)COC(=O)OCCCN(CC)CC (stereo not drawn)
Which entry has a larger number for PDI, I or II ? Selection: enter the item's label. I
(I: 0.019, II: 0.009)

====

# Test: Dynamic light scattering of LNPs: Z-average diameter, number average diameter, PDI
# Format: physicochemical
# Experimental parameters: LNP, sg:mRNA 1:2, N/P about 6, 50/9/38/3; Table 6, Experiments 106-107
Property: Z-avg (nm)

> print(dat)
                                   compound    property  display.unit  result
1  CCCCC/C=C\C/C=C\CCCCCCCC(=O)OCC(COC(=O)CCC(OCCCCCCCC)OCCCCCCCC)COC(=O)NCCN1CCCC1 (stereo not shown) [Compound 100]  Z-avg (nm)            nm      89
2  CCCCC/C=C\C/C=C\CCCCCCCC(=O)OCC(COC(=O)CCC(OCCCCCCCC)OCCCCCCCC)COC(=O)NCCN1CCCCCC1 (stereo not shown) [Compound 103]  Z-avg (nm)            nm      65
3  CCCCCCCCCCCCCCCCCC(=O)OCC(COC(=O)CCC(OCCCCCCCC)OCCCCCCCC)COC(=O)OCCCN(CC)CC (stereo not shown) [Compound 114]  Z-avg (nm)            nm      87
4  CCCCCCCC/C=C\CCCCCCCC(=O)OCC(COC(=O)CCC(OCCCCCCCC)OCCCCCCCC)COC(=O)OCCCN(CC)CC (stereo not shown) [Compound 115]  Z-avg (nm)            nm      93
5  CCCCC/C=C\C/C=C\CCCCCCCC(=O)OCC(COC(=O)CCC(OCCCCCCCC)OCCCCCCCC)COC(=O)NCCN1CCCCC1 (stereo not shown) [Compound 101]  Z-avg (nm)            nm      73
6  CCCCC/C=C\C/C=C\CCCCCCCC(=O)OCC(COC(=O)CCC(OCCCCCCCC)OCCCCCCCC)COC(=O)OCCCN1CCCCC1 (stereo not shown) [Compound 102]  Z-avg (nm)            nm      71
7  CC/C=C\C/C=C\C/C=C\CCCCCCCC(=O)OCC(COC(=O)CCC(OCCCCCCCC)OCCCCCCCC)COC(=O)OCCCN(CC)CC (stereo not shown) [Compound 116]  Z-avg (nm)            nm      90

====

Item-by-item account of Serum TTR
# Test system: Transthyretin (TTR)
# Test: Serum TTR ELISA in mice after LNP dosing
# Assay type: in vivo, CD-1 female mice
# Experimental parameters: mouse, LNP i.v. 0.1 mg/kg, guide G502, Experiment 105
Please respond with the number in µg/mL and leave the unit unwritten.

Guide cases for Serum TTR, answers given:
Compound	Display unit	Serum TTR
CCCCCCCCCCOC(=O)CCCCCCCC(=O)OCC(COC(=O)CCC(OCCCCCCCC)OCCCCCCCC)COC(=O)OCCCN(CC)CC (centres unmarked) [Compound 59]	µg/mL	467
CCCCCCCCCC(C)OC(=O)CCCCCCCC(=O)OCC(COC(=O)CCC(OCCCCCCCC)OCCCCCCCC)COC(=O)OCCCN(CC)CC (centres unmarked) [Compound 94]	µg/mL	352
CCCCC/C=C\C/C=C\CCCCCCCC(=O)OCC(COC(=O)CCC(OCCCCCCCC)OCCCCCCCC)COC(=O)OCCC1CCCN1C (centres unmarked) [Compound 24]	µg/mL	420

Could you share what Serum TTR was measured for CCCCCCCCOC(CCC(=O)OCC(COC(=O)CCCCCCCCCCC(=O)OCCCCCCC)COC(=O)OCCCN(CC)CC)OCCCCCCCC (centres unmarked) [Compound 61] , tested on Transthyretin (TTR)? 472

Could you share what Serum TTR was measured for CCCCC/C=C\C/C=C\CCCCCCCC(=O)OCC(COC(=O)CCC(OCCCCCCCC)OCCCCCCCC)COC(=O)OCCCN(CC)CC (centres unmarked) [Compound 1, reference compound] , tested on Transthyretin (TTR)? 294
